Values were extracted from ChEMBL document CHEMBL1806390.

Assay: Selectivity index, ratio of CC50 for human C8166 cells to EC50 for wild type HIV1 IIIB infected in C8166 cells
Assay type: toxicity, cell-based
Settings: read-out: Ratio CC50/EC50
Respond with class 1 for selectivity ratio values of 2000 and above, class 0 for values below.

Reported selectivity ratio at or above 2000? `Cc1cc(S(N)(=O)=O)ccc1NC(=O)COc1ccc(F)cc1Oc1ccc2ccccc2c1Br`
class 0

Please tell me: is the compound `Cc1cc(S(N)(=O)=O)ccc1NC(=O)COc1ccc(F)cc1Oc1cc2ccccc2cc1C` at or over 2000 in terms of selectivity ratio?
class 0

Please check the record `Cc1cc(S(N)(=O)=O)ccc1NC(=O)COc1ccc(Cl)cc1Oc1ccc2ccccc2c1` and state if its selectivity ratio is at or above 2000.
class 0

Please check the record `Cc1cc(S(N)(=O)=O)ccc1NC(=O)COc1ccc(F)cc1Oc1c(C)cc2ccccc2c1Cl` and state if its selectivity ratio is at or above 2000.
class 0

Check if selectivity ratio >= 2000 (inclusive). Item: `Cc1cc(S(N)(=O)=O)ccc1NC(=O)COc1ccc(F)cc1Oc1ccc2cccc(F)c2c1`
class 0

Identify whether the reported selectivity ratio of the following compound is 2000 or greater: `Cc1cc(S(N)(=O)=O)ccc1NC(=O)COc1ccc(Cl)cc1C(=O)c1cc(Cl)cc(C#N)c1`
class 1

In plain terms: is recorded selectivity ratio at least 2000 for `Cc1cn([C@H]2C[C@H](N=[N+]=[N-])[C@@H](CO)O2)c(=O)[nH]c1=O` ?
class 1

Kindly determine if selectivity ratio recorded for `Cc1cc(S(N)(=O)=O)ccc1NC(=O)COc1ccc(Cl)cc1Oc1c(C)cc2ccccc2c1Cl` is above or exactly 2000.
class 0

Quick check, selectivity ratio >= 2000? `Cc1cc(S(N)(=O)=O)ccc1NC(=O)COc1ccc(F)cc1Oc1ccc2cc(C#N)ccc2c1Cl`
class 1

Quick check: does `Cc1cc(S(N)(=O)=O)ccc1NC(=O)COc1ccc(F)cc1Oc1ccc2ccccc2c1` have selectivity ratio greater than or equal to 2000?
class 0

Answer whether selectivity ratio of `Cc1cc(S(N)(=O)=O)ccc1NC(=O)COc1ccc(Cl)cc1Oc1ccc2ccccc2c1Cl` is greater than or equal to 2000.
class 0

Is reported selectivity ratio greater than or equal to 2000 here: `Cc1cc(S(N)(=O)=O)ccc1NC(=O)COc1ccc(F)cc1Oc1ccc2cc(C#N)ccc2c1`
class 1

====

Tested on: Human immunodeficiency virus 1
Assay: Antiviral activity against 0.06 MOI Human immunodeficiency virus 1 IIIB infected in C8166 cells assessed as reduction in virus-induced cytopathic effect after 3 days by syncytium reduction assay
Format: functional, organism-based
Conditions: C8166, 72 h
Observed property: EC50 (µM)
Please give a number only; it is taken to be in µM.

Input `Cc1cc(S(N)(=O)=O)ccc1NC(=O)COc1ccc(F)cc1Oc1ccc2cc(C#N)ccc2c1Br` , output reported EC50.
0.0046

Quickly give me recorded EC50 for `Cc1cc(S(N)(=O)=O)ccc1NC(=O)COc1ccc(Cl)cc1Oc1ccc2ccccc2c1`
0.0791

Provide one value: measured EC50 of `Cc1cc(S(N)(=O)=O)ccc1NC(=O)COc1ccc(Cl)cc1C(=O)c1cc(Cl)cc(C#N)c1`
0.00068

Please indicate EC50 recorded for `Cc1cc(S(N)(=O)=O)ccc1NC(=O)COc1ccc(F)cc1Oc1ccc2ccccc2c1Cl`
0.186

Complete the entry with EC50 for `Cc1cc(S(N)(=O)=O)ccc1NC(=O)COc1ccc(F)cc1Oc1ccc2cc(C#N)ccc2c1Cl`
0.00472

Report EC50 for `Cc1cc(S(N)(=O)=O)ccc1NC(=O)COc1ccc(F)cc1Oc1ccc2cc(Br)ccc2c1Cl`
0.1

Fill in EC50 for record `Cc1cc(S(N)(=O)=O)ccc1NC(=O)COc1ccc(Cl)cc1Oc1ccc2ccccc2c1Br`
0.0879

Kindly indicate its recorded EC50. Item: `Cc1cc(S(N)(=O)=O)ccc1NC(=O)COc1ccc(F)cc1Oc1ccc2cc(C#N)ccc2c1`
0.0388

Look up EC50 of `Cc1cc(S(N)(=O)=O)ccc1NC(=O)COc1ccc(F)cc1Oc1ccc2cc(Br)ccc2c1` and report it.
0.181

State, in one line, measured EC50 of `Cc1cc(S(N)(=O)=O)ccc1NC(=O)COc1ccc(F)cc1Oc1ccc2ccccc2c1`
0.0455

Answer with reported EC50 of `Cc1cc(S(N)(=O)=O)ccc1NC(=O)COc1ccc(Cl)cc1Oc1ccc2cc(Br)ccc2c1`
0.244

For the compound `Cc1cc(S(N)(=O)=O)ccc1NC(=O)COc1ccc(Cl)cc1Oc1ccc2cc(C#N)ccc2c1` , give its reported EC50.
0.117

Tell me EC50 reported for `Cc1cc(S(N)(=O)=O)ccc1NC(=O)COc1ccc(Cl)cc1Oc1c(C)cc2ccccc2c1Cl`
0.0731
